- targetSystem: Estrogen receptor (Homo sapiens) (UniProt P03372)
- Sequence (P03372 whole entry, looked up): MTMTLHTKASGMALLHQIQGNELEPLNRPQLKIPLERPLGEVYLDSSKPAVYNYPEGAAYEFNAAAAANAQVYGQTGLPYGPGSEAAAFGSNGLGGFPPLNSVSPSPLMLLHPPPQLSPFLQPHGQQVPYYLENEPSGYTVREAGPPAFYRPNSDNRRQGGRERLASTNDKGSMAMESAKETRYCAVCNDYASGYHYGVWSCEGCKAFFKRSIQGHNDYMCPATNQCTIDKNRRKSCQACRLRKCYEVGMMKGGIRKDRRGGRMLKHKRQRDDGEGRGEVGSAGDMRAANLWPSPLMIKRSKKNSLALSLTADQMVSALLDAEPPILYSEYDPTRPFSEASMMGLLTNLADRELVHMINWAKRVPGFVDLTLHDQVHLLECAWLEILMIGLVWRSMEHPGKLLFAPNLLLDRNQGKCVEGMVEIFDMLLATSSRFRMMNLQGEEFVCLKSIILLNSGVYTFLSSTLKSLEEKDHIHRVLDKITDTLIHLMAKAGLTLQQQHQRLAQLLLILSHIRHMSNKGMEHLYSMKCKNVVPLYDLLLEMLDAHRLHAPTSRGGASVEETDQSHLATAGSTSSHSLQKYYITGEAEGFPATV
- methodSummary: NVS_NR_hER: NovaScreen (NVS) Nuclear Receptor Binding Assay for human Estrogen Receptor (ER) (AID 2283348)
Records with an inconclusive call do not appear. The source made the active and inactive calls. Rule for the calls: active = hit-call score of the fitted dose curve at least 0.9, where 1 is the maximum; inconclusive = response in the unintended direction; inactive = score below 0.9.
Possible outcomes: active, inactive

# compound, answerLabel
records = [
    ("CCCCCCC(=O)OCC", "inactive"),
    ("CC(=O)C(C)=CC1C(C)=CCCC1(C)C (stereo not given)", "inactive"),
    ("CCOC(=O)CCC(=O)OCC", "inactive"),
    ("CCCc1cc(=O)[nH]c(=S)[nH]1", "active"),
    ("C=CCOC(=O)c1ccccc1C(=O)OCC=C", "active"),
]

====

- targetSystem: human Thromboxane A2 Receptor (TXA2), TBXA2R (gene 6915) (UniProt P21731)
- Sequence (P21731 whole entry, looked up): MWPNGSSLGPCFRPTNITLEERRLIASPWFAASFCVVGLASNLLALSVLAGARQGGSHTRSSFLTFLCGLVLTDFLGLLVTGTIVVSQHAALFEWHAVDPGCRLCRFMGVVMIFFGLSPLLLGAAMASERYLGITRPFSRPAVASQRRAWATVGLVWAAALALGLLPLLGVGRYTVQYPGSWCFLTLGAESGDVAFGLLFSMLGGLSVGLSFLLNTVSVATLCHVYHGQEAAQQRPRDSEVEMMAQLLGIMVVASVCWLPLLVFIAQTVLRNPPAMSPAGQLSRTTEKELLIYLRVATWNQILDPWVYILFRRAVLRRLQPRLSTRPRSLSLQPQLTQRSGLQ
- methodSummary: NVS_GPCR_hTXA2: NovaScreen (NVS) G Protein-Coupled Receptor Assay for human Thromboxane A2 Receptor (TXA2) (AID 2283282);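 note: actives reduce bound radioligand signal relative to DMSO baseline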
Results filed as inconclusive are left out. Activity calls are given as the source filed them. The calls were made as follows: active = hit-call score of the fitted dose curve at least 0.9, where 1 is the maximum; inconclusive = response in the unintended direction; inactive = score below 0.9.
Classes used: Yes for active, No for inactive

# chemicalStructure, answerLabel
measured = [
    ("Cc1oc(-c2ccccc2)nc1CCOc1cccc2c1ccn2CCC(=O)O", "Yes"),
    ("C[Si]1(C)O[Si](C)(C)O[Si](C)(C)O[Si](C)(C)O1", "No"),
    ("CNCc1cc(F)ccc1Oc1ccc(Cl)c(Cl)c1", "No"),
    ("COc1cc(-c2nc(NC(=O)c3cc4cc(C)cc(C)c4n3CC(=O)O)sc2CCC2CCCCC2)c(OC)cc1Cl", "No"),
    ("Cc1cccc(Nc2cc(Cl)nc(SCC(=O)O)n2)c1C", "Yes"),
]

====

- System: SRY-box transcription factor 17 (SOX17) Protein Expression, Deisenroth Lab, SOX17 (gene 64321)
- methodSummary: CCTE_Deisenroth_DEVTOX-GLR_Endo_SOX17: CCTE's DevTox GLR-Endo Assay Evaluation of SRY-box transcription factor 17 (SOX17) Protein Expression, Deisenroth Lab (AID 2284413)
The source made the active and inactive calls. How the source made its calls: active means hit-call score of the fitted dose curve at least 0.9, where 1 is the maximum; inactive means score below 0.9.
Outcome codes: yes = active, no = inactive

# chemicalStructure, answerLabel
measured = [
    ("CCCc1cc(=O)[nH]c(=S)[nH]1", "no"),
    ("CC1=C(/C=C/C(C)=C/C=C/C(C)=C/CO)C(C)(C)CCC1", "yes"),
    ("COc1ccc2c(c1)c(CC(=O)O)c(C)n2C(=O)c1ccc(Cl)cc1", "yes"),
    ("COc1cccc2c1C(=O)c1c(O)c3c(c(O)c1C2=O)C[C@@](O)(C(=O)CO)C[C@@H]3O[C@H]1C[C@H](N)[C@H](O)[C@H](C)O1", "yes"),
    ("O=c1[nH]cc(F)c(=O)[nH]1", "yes"),
    ("CC(=O)Oc1ccccc1C(=O)O", "no"),
]

====

- Read-out: DNA damage-inducible transcript 3 (DDIT3), DDIT3 (gene 1649)
- methodSummary: LTEA_HepaRG_DDIT3: Life Technologies and Expression Analysis (LTEA) Assay for DNA damage-inducible transcript 3 (DDIT3) using HepaRG (AID 2283488)
- conditionsUsed: mRNA level, 48 h; actives raise or lower the signal
Activity calls are given as the source filed them. How the source made its calls: active means hit-call score of the fitted dose curve at least 0.9, where 1 is the maximum; inactive means score below 0.9.
Possible outcomes: True (active), False (inactive)

# compound, answerLabel
data = [
    ("Cc1ccccc1Cl", "False"),
    ("CNCc1cc(F)ccc1Oc1ccc(Cl)c(Cl)c1", "True"),
    ("Cc1cc(=O)[nH]c(=S)[nH]1", "False"),
    ("Nc1ccccc1N", "False"),
    ("NC(=O)Cn1c(=O)cc(CCN2CCN(c3nccc4sccc34)CC2)c2ccc(F)cc21", "True"),
    ("c1cc(-c2ccncc2)ccn1", "False"),
    ("CCCCCCCC=O", "True"),
    ("Cc1nc(-c2ccc3c(c2)CCN(CCC2CCC(NC(=O)/C=C/c4ccc(F)cc4)CC2)CC3)no1 (stereo not given)", "False"),
    ("COc1ccc(C)cc1N", "False"),
    ("O=[N+]([O-])C(CO)(CO)CO", "False"),
]

====

- Read-out: Interleukin-1 alpha (IL1a), IL1A (gene 3552)
- methodSummary: BSK_KF3CT_IL1a: BioMAP Diversity Plus: KF3CT Assay for Interleukin-1 alpha (IL1a) Biomarker Activity (AID 2283070)
- conditionsUsed: primary human keratinocytes with fibroblasts; actives raise or lower the signal
- Description: BSK_KF3CT is a cell-based, multiplexed-readout assay that uses keratinocytes and foreskin fibroblasts, a human skin primary cell co-culture, with measurements taken at 24 hours after chemical dosing in a 96-well plate.BSK_KF3CT_IL1a is an assay component measured in the BSK_KF3CT assay. It measures IL-1a antibody related to regulation of gene expression using ELISA technology.Data from the assay component BSK_KF3CT_IL1a was analyzed into 1 assay endpoint. […]
Activity calls are given as the source filed them. The calls were made as follows: active = hit-call score of the fitted dose curve at least 0.9, where 1 is the maximum; inactive = score below 0.9.
Classes used: label 1 (active), label 0 (inactive)

# chemicalStructure, answerLabel
measured = [
    ("CCCc1cc(=O)[nH]c(=S)[nH]1", "label 0"),
    ("CCCCCCCCCCC", "label 0"),
    ("CC(C)c1ccc(C(=O)N=C(N)N)cc1S(C)(=O)=O", "label 0"),
    ("CCCCc1ccc2c(n1)[C@@H](c1ccc(OC)cc1C[C@H](C)C(=O)O)[C@H](C(=O)O)[C@H]2c1ccc2c(c1)OCO2", "label 0"),
    ("NC(=O)Cn1c(=O)cc(CCN2CCN(c3nccc4sccc34)CC2)c2ccc(F)cc21", "label 0"),
    ("CC(=O)Oc1ccccc1C(=O)O", "label 0"),
    ("Clc1cc(Cl)c(Cl)cc1Cl", "label 0"),
    ("O=c1c(O)c(-c2ccc(O)c(O)c2)oc2cc(O)cc(O)c12", "label 1"),
    ("Cc1cccc(Nc2cc(Cl)nc(SCC(=O)O)n2)c1C", "label 0"),
    ("CC=Cc1ccc(O)c(OC)c1", "label 0"),
    ("COc1cc(S(=O)(=O)O)c(C)cc1N=Nc1c(O)ccc2cc(S(=O)(=O)O)ccc12", "label 0"),
    ("CCCCCCCCCCCCCCCC", "label 0"),
]

====

- Read-out: CFLAR gene, CFLAR (gene 8837)
- methodSummary: LTEA_HepaRG_CFLAR: Life Technologies and Expression Analysis (LTEA) Assay for CFLAR gene using HepaRG (AID 2283455)
- conditionsUsed: mRNA level, 48 h; actives raise or lower the signal
- Protocol: LTEA_HepaRG is a cell based, multiplexed-readout assay that uses HepaRG, a human liver cell line, with measurements taken at 48 hours after chemical dosing on a 96-well plate.LTEA_HepaRG_CFLAR is one of 102 assay component(s) measured in the LTEA HepaRG cell culture assay. It is a marker of Cell proliferation, survival, death.Data from the assay component LTEA_HepaRG_CFLAR was analyzed into 1 endpoint. […]
Active and inactive are the calls of the source. The calls were made as follows: active = hit-call score of the fitted dose curve at least 0.9, where 1 is the maximum; inactive = score below 0.9.
Outcome codes: T for active, F for inactive

# compound, answerLabel
records = [
    ("O=c1c(O)c(-c2ccc(O)c(O)c2)oc2cc(O)cc(O)c12", "F"),
    ("COc1ccc(C)cc1N", "F"),
    ("Cc1c(C(=O)O)c(O)cc2c1C(=O)c1c(O)c([C@@H]3O[C@H](CO)[C@@H](O)[C@H](O)[C@H]3O)c(O)c(O)c1C2=O", "F"),
    ("O=C(OCCCCCOC(=O)c1ccccc1)c1ccccc1", "T"),
    ("CC(=O)C(C)=CC1C(C)=CCCC1(C)C (stereo unspecified)", "F"),
    ("COc1cc(C=O)ccc1O", "F"),
]

====

- targetSystem: Myc proto-oncogene protein (Homo sapiens) (UniProt P01106)
- Sequence (P01106 whole entry, looked up): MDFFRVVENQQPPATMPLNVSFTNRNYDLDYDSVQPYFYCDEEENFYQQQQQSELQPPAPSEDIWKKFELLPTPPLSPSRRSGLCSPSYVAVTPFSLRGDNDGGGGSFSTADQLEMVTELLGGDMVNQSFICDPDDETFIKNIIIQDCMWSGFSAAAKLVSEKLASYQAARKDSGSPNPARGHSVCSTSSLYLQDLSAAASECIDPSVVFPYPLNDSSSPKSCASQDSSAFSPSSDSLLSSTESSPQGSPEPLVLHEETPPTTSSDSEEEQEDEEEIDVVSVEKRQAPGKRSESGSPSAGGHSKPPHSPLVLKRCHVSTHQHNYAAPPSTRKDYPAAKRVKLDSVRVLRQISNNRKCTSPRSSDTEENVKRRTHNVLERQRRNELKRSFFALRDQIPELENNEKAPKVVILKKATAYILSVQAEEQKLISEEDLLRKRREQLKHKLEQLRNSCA
- methodSummary: ATG_Myc_CIS: Attagene CIS-FACTORIAL HepG2 Assay for human Myelocytomatosis (Myc) Proto-Oncogene Transcription Factor (AID 2282990)
- conditionsUsed: HepG2, Attagene cis-reporter transcription factor activity; actives raise or lower the signal
Active and inactive are the calls of the source. The calls were made as follows: active = hit-call score of the fitted dose curve at least 0.9, where 1 is the maximum; inactive = score below 0.9.
Possible outcomes: active, inactive

# chemicalStructure, answerLabel
data = [
    ("Cc1ccc(C)c(C)c1", "inactive"),
    ("Cc1cc(NC(=O)C(=O)O)cc(C)c1Oc1ccc(O)c2c1CCC2", "inactive"),
    ("CCCCCCCCCCCC(=O)OC", "inactive"),
    ("CCCCCC(=O)O", "inactive"),
    ("CC1(C)NC(=O)NC1=O", "inactive"),
    ("CCCCCCCCCCCCCCCC", "inactive"),
    ("OC[C@@H](O)[C@@H](O)[C@H](O)[C@H](O)CO", "inactive"),
    ("Nc1ccc(S(=O)(=O)c2ccc(N)cc2)cc1", "inactive"),
    ("COc1cc(-c2nc(NC(=O)c3cc4cc(C)cc(C)c4n3CC(=O)O)sc2CCC2CCCCC2)c(OC)cc1Cl", "inactive"),
    ("COc1cc(C=O)ccc1O", "inactive"),
    ("Cc1cc(=O)[nH]c(=S)[nH]1", "inactive"),
    ("CCCCc1ccc2c(n1)[C@@H](c1ccc(OC)cc1C[C@H](C)C(=O)O)[C@H](C(=O)O)[C@H]2c1ccc2c(c1)OCO2", "inactive"),
    ("c1cc(-c2ccncc2)ccn1", "inactive"),
    ("CC(C)(C)c1cc(O)c(C(C)(C)C)cc1O", "active"),
    ("COc1cccc2c1C(=O)c1c(O)c3c(c(O)c1C2=O)C[C@@](O)(C(=O)CO)C[C@@H]3O[C@H]1C[C@H](N)[C@H](O)[C@H](C)O1", "active"),
    ("C[Si]1(C)O[Si](C)(C)O[Si](C)(C)O[Si](C)(C)O1", "inactive"),
    ("NC(=O)Cn1c(=O)cc(CCN2CCN(c3nccc4sccc34)CC2)c2ccc(F)cc21", "inactive"),
    ("CCCCCCC(=O)OCC", "inactive"),
    ("Cc1cccc(Nc2cc(Cl)nc(SCC(=O)O)n2)c1C", "inactive"),
    ("Cc1cccc(C)c1O", "inactive"),
    ("CC(=O)OC/C=C(\\C)CCC=C(C)C", "inactive"),
    ("Clc1cc(Cl)c(Cl)cc1Cl", "inactive"),
    ("Cc1ccc(Cl)cc1", "inactive"),
    ("Cc1ccc(C(C)C)c(O)c1", "inactive"),
    ("CCOC(=O)C(C)(C)Oc1ccc(Cl)cc1", "inactive"),
    ("Cc1ccc(C)c(O)c1C", "inactive"),
    ("CNCc1cc(F)ccc1Oc1ccc(Cl)c(Cl)c1", "inactive"),
]
